# System: HCT116
# testDetails: cell viability (CellTiter-Glo) relative to plate median (fraction of plate median); higher = more viable cells
# setupConditions: 5 µM; treatment time 24 h; reporter: TCF4/Wnt
Binary call on cell viability with cut-off 1: strictly below means true, and equality or higher means false.

compound: CN1[C@@H]2CC[C@H]1C[C@@H](OC(=O)[C@H](CO)c1ccccc1)C2
categoryLabel: false
//
compound: COC(=O)[C@H]1O[C@@H]2C[C@H]3O[C@@H](n4cnc5c(N)ncnc54)[C@H](OC)[C@H]3O[C@@]2(O)[C@@H](O)[C@@H]1O
categoryLabel: false
//
compound: CCC(C)C(=O)OC1CC2(C)C(c3ccoc3)OC(=O)CC23OC2(C)OC34C(OC(=O)C(C)C)C3(O)C(OC(=O)C5(C)OC5C)C5(C)CC3(O)C(C)(C5CC(=O)OC)C14O2 (stereo not drawn)
categoryLabel: false
//
compound: NCCc1c[nH]c2ccccc12
categoryLabel: false
//
compound: CN1C[C@H](C(=O)N[C@]2(C)O[C@@]3(O)[C@@H]4CCCN4C(=O)[C@H](Cc4ccccc4)N3C2=O)C=C2c3cccc4[nH]cc(c34)C[C@H]21
categoryLabel: false
//
compound: CC[N+]1(C)CCCC(OC(=O)C(O)(c2ccccc2)c2ccccc2)C1 (stereo not drawn)
categoryLabel: true
//
compound: COc1cc2c(cc1OC)[C@@H]1C(=O)c3ccc4oc(C(C)C)cc4c3O[C@@H]1CO2
categoryLabel: true
//
compound: CC(C)=CCCC1(C)C=Cc2c(O)c3c(c(CC=C(C)C)c2O1)OC12C(CC4CC1C(C)(C)OC2(C/C=C(/C)C(=O)O)C4O)C3=O (stereo not drawn)
categoryLabel: false
//
compound: C=C1C[C@@H]2[C@H](CC[C@]3(C)C(=O)CC[C@@H]23)[C@@]2(C)C=CC(=O)C=C12
categoryLabel: false
//
compound: NNCc1ccccc1
categoryLabel: false

Prompt line: Just wondering, is cell viability of `COc1ccc(C(=O)O[C@H]2CC[C@@]3(C)[C@@H]4CC[C@H]5[C@]6(O)C[C@H](O)[C@@]7(O)[C@@H](CN8C[C@@H](C)CC[C@H]8[C@@]7(C)O)[C@]6(O)C[C@@]53O[C@]24O)cc1OC` below 1?
Response line: true

Prompt line: Just wondering, is cell viability of `[N-]=[N+]=CC(=O)OC[C@H](N)C(=O)O` below 1?
Response line: true

Prompt line: Just wondering, is cell viability of `FC(F)(F)c1cccc(N2CCNCC2)c1` below 1?
Response line: false

Prompt line: Just wondering, is cell viability of `COC1=C[C@@H]2[C@@H]3Cc4ccc(OC)c(O)c4[C@]2(CCN3C)CC1=O` below 1?
Response line: true

Prompt line: Just wondering, is cell viability of `COc1cc([C@@H]2c3cc4c(cc3[C@H](OC(C)=O)[C@H]3COC(=O)[C@@H]23)OCO4)cc(OC)c1OC` below 1?
Response line: true

Prompt line: Just wondering, is cell viability of `CC(=O)OCC1=C(C(=O)O)N2C(=O)[C@@H](NC(=O)CCC[C@@H](N)C(=O)O)[C@H]2SC1` below 1?
Response line: true

====

# System: DLD1
# testDetails: TCF/Wnt firefly luciferase reporter signal relative to plate median (fraction of plate median); higher = higher Wnt reporter signal
# setupConditions: 5 µM; treatment time 24 h; reporter: 7TFP
Class (by TCF/Wnt firefly luciferase reporter signal) -- bucket 1 (below 0.9), bucket 2 (0.9 to below 1), bucket 3 (1 or more)

compound: [O-][n+]1ccccc1[S-].[O-][n+]1ccccc1[S-].[Zn+2]
assayedSystem: DLD1
categoryLabel: bucket 1

compound: Cc1cccc(C)c1NC1=NCCCS1
assayedSystem: DLD1
categoryLabel: bucket 3

compound: C#C[C@]1(O)CC[C@H]2[C@@H]3CCC4=CC(=O)CC[C@]4(C)[C@H]3CC[C@@]21C
assayedSystem: DLD1
categoryLabel: bucket 3

Prompt line: Quick check: band for `C[C@@H](CO)NC(=O)[C@@H]1C=C2c3cccc4[nH]cc(c34)C[C@H]2N(C)C1`
Response line: bucket 3

Prompt line: Quick check: band for `CC[C@H]1[C@@H]2C[C@H]3[C@@H]4N(C)c5ccccc5[C@]45C[C@@H]([C@@H]2[C@H]5O)N3[C@@H]1O`
Response line: bucket 2

Prompt line: Quick check: band for `C/C=C(/C)C(=O)O[C@H]1CC[C@@]2(C)[C@@H]3CC[C@H]4[C@]5(O)C[C@H](O)[C@@]6(O)[C@@H](CN7C[C@@H](C)CC[C@H]7[C@@]6(C)O)[C@]5(O)C[C@@]42O[C@]13O`
Response line: bucket 2

Prompt line: Quick check: band for Cc1cc(O)cc2oc(=O)c3c(O)cc(O)cc3c12 [Alternariol]
Response line: bucket 1

Prompt line: Quick check: band for `CSc1nc(NC(C)C)nc(NC(C)C)n1`
Response line: bucket 3

Prompt line: Quick check: band for `CCOP(=S)(OCC)Oc1ccc2c(C)c(Cl)c(=O)oc2c1`
Response line: bucket 2

Prompt line: Quick check: band for CC(=O)O[C@H]1C[C@@H](OC(C)=O)C(C)(C)C2C[C@@H](OC(C)=O)[C@]3(C)C(CC[C@@]4(C)[C@H](c5ccoc5)C(=O)[C@H]5O[C@]543)[C@]21C (stereo not given in full)
Response line: bucket 3

Prompt line: Quick check: band for CC(C)(C)NCC(O)c1cc(Cl)c(N)c(Cl)c1 (stereo not given)
Response line: bucket 2

Prompt line: Quick check: band for `COc1ccc(/C=C/c2cc(O)cc(O)c2)cc1`
Response line: bucket 3

Prompt line: Quick check: band for `COP(=O)(OC)OC=C(Cl)Cl`
Response line: bucket 3

Prompt line: Quick check: band for NCC(O)c1ccc(O)cc1 (stereo not given)
Response line: bucket 2

Prompt line: Quick check: band for `COc1cc([C@@H]2c3cc4c(cc3[C@@H](O)[C@H]3COC(=O)[C@H]23)OCO4)cc(OC)c1O`
Response line: bucket 1

Prompt line: Quick check: band for `C1CCc2nnnn2CC1`
Response line: bucket 2

Prompt line: Quick check: band for `NCC(=O)c1ccccc1`
Response line: bucket 1

Prompt line: Quick check: band for COC1C(O)C(O[C@H]2CC[C@]3(C=O)C4C(CC[C@]3(O)C2)[C@@]2(O)CC[C@H](C3=CC(=O)OC3)[C@@]2(C)C[C@H]4OC(C)=O)OC(C)C1OC(C)=O (stereo not given in full)
Response line: bucket 1

Prompt line: Quick check: band for `COC(=O)[C@]1(C)CC[C@]2(C)CC[C@]3(C)C4=CCc5c(cc(O)c(O)c5C)[C@]4(C)CC[C@@]3(C)[C@@H]2C1`
Response line: bucket 3

Prompt line: Quick check: band for `CC1=C2[C@H]3OC(=O)[C@@H](C)[C@@H]3CC[C@@]2(C)C=CC1=O`
Response line: bucket 2
